The entries below are paired with their reported koff.
# ASSAYED SYSTEM: T1, human IL-33 (R&D Systems, #3625-IL-010/CF) (human, UniProt O95760 112-270)
# T1 construct: Commercial recombinant protein; also called hIL-33; interleukin-33
# T1 sequence (looked up): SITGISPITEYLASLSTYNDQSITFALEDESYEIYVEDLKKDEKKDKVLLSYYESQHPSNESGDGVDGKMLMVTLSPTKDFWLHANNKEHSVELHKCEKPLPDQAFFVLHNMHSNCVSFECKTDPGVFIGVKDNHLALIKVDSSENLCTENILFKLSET
# ASSAY PROCEDURE: SPR 37C, pH6.0 chase, mAb captured
Please reply with the bare figure in s⁻¹ and do not write the unit itself.

Would you please look over these solved cases?
- BINDER: "H4H9640P (antibody, human IgG4, V domains shown, Human IgG4 Fc (H4H)) VH: QVQLQESGPGLVKPSETLSLTCTVSGGSISSYYWSWIRQPPGKGLELIGYIYYSGSTNYNPSLKSRVTISVDTSKNHFSLKLSSVTAADTAVYYCARSQYTSSWYGSFDIWGQGTMVTVSS VL: DIQMTQSPSSVSASVGDRVTITCRASQGISTWLAWFQQKPGKAPKLLIYAASTLQGGVPSRFSGSGSGPEFTLTISSLQPEDFATYYCQQANSFPWTFGQGTKVEIK"
  UOM: "s⁻¹"
  koff: 0.00265
- BINDER: "H1M9566N (antibody, mouse IgG1, V domains shown, Human variable domains, mouse IgG1 Fc (H1M)) VH: EVQLLESGGDLVQPGGSLRLSCAASGFTFSSYAMSWVRQAPGKGLEWVSVISGSGSSTDYADSVKGRFTISRDNSRDTLHLQMNSLRAEDTAVYYCAKTFYYFYGLDVWGQGTTVTVSS VL: DIQMTQSPSSLSASLRDRVTITCRASQGISNYLAWYQQKPGKVPKVLIYAASTLQSGVPSRFSGSGSGTVFTLTISSLQTEDVATYYCQKYSSAPFTFGPGTKVDIK"
  UOM: "s⁻¹"
  koff: 0.000967
- BINDER: "H4H9676P (antibody, human IgG4, V domains shown, Human IgG4 Fc (H4H)) VH: EVQLVESGGGLVQPGGSLRLSCSASGFTFSSYAMNWVRQAPGKGLEWVTAISGSGGGTYYADSVKGRFTISRDNSKNSLFLQLNSLRAEDTAVYYCAKQTYTSSWYGGFDIWGQGTMVTVSS VL: DIQMTQSPSSVSASVGDRVTITCRASQGFSSWLAWYQQIPGKAPKLLIYAASRLQSGVPSRFRGSGSGTDFTLTISSLQPEDFATYYCQQANSFPLTFGGGTKVEIK"
  UOM: "s⁻¹"
  koff: 0.00524
- BINDER: "H4H9667P (antibody, human IgG4, V domains shown, Human IgG4 Fc (H4H)) VH: EVQLVESGGGLVQPGGSLRLSCAASGFTFSTYSMHWVRQAPGKGLEYVSTINNNGDTTYYADSVKGRFTISRDNSKNTLYLQLGSLRPEDMAVYYCARQTYTSSWYGGFDSWGQGTLVTVSS VL: DIQMTQSPSSVSASVGDRVTITCRASQGITSWLAWYQQKPGKAPKLLIYAASNLQSGVPSRFSGSGSGTDFTLTITSLQPEDFATYYCQQANSLPFTFGPGTKVDIK"
  UOM: "s⁻¹"
  koff: 0.00244

Please turn your attention to the following entry.
Reported koff ( H4H9633P (antibody, human IgG4, V domains shown, Human IgG4 Fc (H4H)) VH: EVQLVESGGGLVQPGGSLRLSCAASGFTFSSYVMSWVRQAPGKGLEWVSSISGNGGSTNYADSVKGRFTISRDNSKNTLFLEMNSLRAEDTAVYYCAKSLGTTTTFLGFDYWGQGTLVTVSS VL: DIQMTQSPSSVSASVGDRVTITCRASQGISSWLAWYQQKPGKAPKLLIYAASSLQSGVPSRFSGSGSGTYFTLTISSLQPEDFATYYCQQANSFPLTFGGGTKVEIK ) = 0.0024
